Tested on: ALL-SIL (T-Lymphoblastic Leukemia);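 further: after 72 h of two-drug dosing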
Test: Bliss excess, mean over the matrix (fraction); higher = more synergy
readout-name: Bliss excess

// below: answered molecules
>  <molecule>
Cc1cc2ncnn2cc1Nc1ncc2c(n1)n(C1CCOCC1)c(=O)n2C [AZD7648] + CCN(CCO)CCCOc1ccc2c(Nc3cc(CC(=O)Nc4cccc(F)c4)[nH]n3)ncnc2c1 [AZD2811] (first compound max 10 µM, 7x7, partner max 1 µM)

>  <Bliss excess>
-0.0416

$$$$
>  <molecule>
Cc1c2c(nn1C)CSCc1cc(n(C)n1)CSc1cc(c3ccccc3c1)OCCCc1c(C(=O)O)n(C)c3c-2c(Cl)ccc13 [AZD5991] + Cn1cnc2c(F)c(Nc3ccc(Br)cc3Cl)c(C(=O)NOCCO)cc21 [Selumetinib] (first compound max 1 µM, 7x7, partner max 3 µM)

>  <Bliss excess>
0.0068

$$$$
>  <molecule>
CC1(C)CCC(CN2CCN(c3ccc(C(=O)NS(=O)(=O)c4ccc(NCC5CCOCC5)c([N+](=O)[O-])c4)c(Oc4cnc5[nH]ccc5c4)c3)CC2)=C(c2ccc(Cl)cc2)C1 [Venetoclax] + C=CCn1c(=O)c2cnc(Nc3ccc(N4CCN(C)CC4)cc3)nc2n1-c1cccc(C(C)(C)O)n1 [AZD1775] (first compound max 1 µM, partner max 1 µM)

>  <Bliss excess>
0.0792

$$$$
>  <molecule>
CN(C)CCCOc1ccc(-c2ccc3ncc4c(c3c2)n(C2CCOCC2)c(=O)n4C)cn1 [AZD0156] + O=C(c1cc(Cc2n[nH]c(=O)c3ccccc23)ccc1F)N1CCN(C(=O)C2CC2)CC1 [Olaparib] (first compound max 3 µM, partner max 3 µM)

>  <Bliss excess>
0.0281

$$$$
>  <molecule>
C=CCn1c(=O)c2cnc(Nc3ccc(N4CCN(C)CC4)cc3)nc2n1-c1cccc(C(C)(C)O)n1 [AZD1775] + C1CN(CCC1(C(=O)N[C@@H](CCO)C2=CC=C(C=C2)Cl)N)C3=NC=NC4=C3C=CN4 [Capivasertib] (first compound max 3 µM, partner max 3 µM)

>  <Bliss excess>
-0.0129

$$$$

Q: Let me know recorded Bliss excess for Cc1c2c(nn1C)CSCc1cc(n(C)n1)CSc1cc(c3ccccc3c1)OCCCc1c(C(=O)O)n(C)c3c-2c(Cl)ccc13 [AZD5991] + C[C@@H](Nc1cc(F)cc(F)c1)c1cc(C(=O)N(C)C)cc2c(=O)cc(N3CCOCC3)oc12 [AZD8186] (first compound max 1 µM, 7x7, partner max 3 µM) , thanks.
Ans: -0.0301

Q: Assign Bliss excess to the following record: C[C@@H](c1ccc2nccn2c1)n1nnc2ncc(-c3cnn(C)c3)nc21 [Savolitinib] + Cc1c2c(nn1C)CSCc1cc(n(C)n1)CSc1cc(c3ccccc3c1)OCCCc1c(C(=O)O)n(C)c3c-2c(Cl)ccc13 [AZD5991] (first compound max 1 µM, 7x7, partner max 1 µM)
Ans: -0.0355

###

Reported values of combination Emax for individual entries
System: SKN (Other Solid Carcinomas)
Test: combination Emax (second highest fraction inhibited in the dose matrix, 72 h); higher = more inhibition; extreme values may be limits of the assay

Examples with answers:
>  <compound>
CN(CCO)CC[C@H](CSc1ccccc1)Nc1ccc(S(=O)(=O)NC(=O)c2ccc(N3CCC([C@@H](O)c4ccccc4-c4ccc(Cl)cc4)CC3)cc2)cc1S(=O)(=O)C(F)(F)F [AZD4320] + C=CCn1c(=O)c2cnc(Nc3ccc(N4CCN(C)CC4)cc3)nc2n1-c1cccc(C(C)(C)O)n1 [AZD1775] (first compound max 1 µM, partner max 1 µM)

>  <readout-value>
0.586

$$$$
>  <compound>
Cc1c2c(nn1C)CSCc1cc(n(C)n1)CSc1cc(c3ccccc3c1)OCCCc1c(C(=O)O)n(C)c3c-2c(Cl)ccc13 [AZD5991] + CC1(C)CCC(CN2CCN(c3ccc(C(=O)NS(=O)(=O)c4ccc(NCC5CCOCC5)c([N+](=O)[O-])c4)c(Oc4cnc5[nH]ccc5c4)c3)CC2)=C(c2ccc(Cl)cc2)C1 [Venetoclax] (first compound max 1 µM, 7x7, partner max 1 µM)

>  <readout-value>
0.177

$$$$

Attention now shifts to the item below.
Q: Supply reported combination Emax belonging to this compound: CC1(C)CCC(CN2CCN(c3ccc(C(=O)NS(=O)(=O)c4ccc(NCC5CCOCC5)c([N+](=O)[O-])c4)c(Oc4cnc5[nH]ccc5c4)c3)CC2)=C(c2ccc(Cl)cc2)C1 [Venetoclax] + COc1cc(Nc2ncc3c(n2)-c2ccc(Cl)cc2C(c2c(F)cccc2OC)=NC3)ccc1C(=O)O [Alisertib] (first compound max 1 µM, 7x7, partner max 10 µM)
Ans: 0.577

###

System: KOPN-8 (B-Lymphoblastic Leukemia)
Assay: combination Emax (second highest fraction inhibited in the dose matrix, 72 h); higher = more inhibition; extreme values may be limits of the assay
readout-name: combination Emax
Would you mind answering with just the numeric figure?

>  <molecule>
CC1(C)CCC(CN2CCN(c3ccc(C(=O)NS(=O)(=O)c4ccc(NCC5CCOCC5)c([N+](=O)[O-])c4)c(Oc4cnc5[nH]ccc5c4)c3)CC2)=C(c2ccc(Cl)cc2)C1 [Venetoclax] + CN(C)CCCOc1ccc(-c2ccc3ncc4c(c3c2)n(C2CCOCC2)c(=O)n4C)cn1 [AZD0156] (first compound max 1 µM, 7x7, partner max 1 µM)

>  <target>
KOPN-8 (B-Lymphoblastic Leukemia)

>  <readout-value>
0.813

$$$$
>  <molecule>
C[C@@H](c1ccc2nccn2c1)n1nnc2ncc(-c3cnn(C)c3)nc21 [Savolitinib] + CC1(C)CCC(CN2CCN(c3ccc(C(=O)NS(=O)(=O)c4ccc(NCC5CCOCC5)c([N+](=O)[O-])c4)c(Oc4cnc5[nH]ccc5c4)c3)CC2)=C(c2ccc(Cl)cc2)C1 [Venetoclax] (first compound max 1 µM, 7x7, partner max 1 µM)

>  <target>
KOPN-8 (B-Lymphoblastic Leukemia)

>  <readout-value>
0.743

$$$$

Q: Answer with the recorded combination Emax of CS(=O)(=O)CCNCc1ccc(-c2ccc3ncnc(Nc4ccc(OCc5cccc(F)c5)c(Cl)c4)c3c2)o1 [Lapatinib] + NC1(c2ccc(-c3nc4ccn5c(=O)[nH]nc5c4cc3-c3ccccc3)cc2)CCC1 [MK-2206] (first compound max 10 µM, 7x7, partner max 10 µM) only.
Ans: 0.936

###

Test system: SW872 (Other Solid Carcinomas)
Assay: combination Emax (second highest fraction inhibited in the dose matrix, 72 h); higher = more inhibition; extreme values may be limits of the assay
Returns one of MET or NOT MET; MET when combination Emax is >= 0.3.

Examples from the recorded data:
>  <molecule>
Cc1c2c(nn1C)CSCc1cc(n(C)n1)CSc1cc(c3ccccc3c1)OCCCc1c(C(=O)O)n(C)c3c-2c(Cl)ccc13 [AZD5991] + Cc1cc2ncnn2cc1Nc1ncc2c(n1)n(C1CCOCC1)c(=O)n2C [AZD7648] (first compound max 1 µM, 7x7, partner max 10 µM)

>  <target>
SW872 (Other Solid Carcinomas)

>  <discrete-label>
NOT MET

$$$$
>  <molecule>
O=C(c1cc(Cc2n[nH]c(=O)c3ccccc23)ccc1F)N1CCN(C(=O)C2CC2)CC1 [Olaparib] + Cc1c2c(nn1C)CSCc1cc(n(C)n1)CSc1cc(c3ccccc3c1)OCCCc1c(C(=O)O)n(C)c3c-2c(Cl)ccc13 [AZD5991] (first compound max 10 µM, 7x7, partner max 1 µM)

>  <target>
SW872 (Other Solid Carcinomas)

>  <discrete-label>
NOT MET

$$$$
>  <molecule>
CCN(CCO)CCCOc1ccc2c(Nc3cc(CC(=O)Nc4cccc(F)c4)[nH]n3)ncnc2c1 [AZD2811] + O=C(c1cc(Cc2n[nH]c(=O)c3ccccc23)ccc1F)N1CCN(C(=O)C2CC2)CC1 [Olaparib] (first compound max 1 µM, 7x7, partner max 10 µM)

>  <target>
SW872 (Other Solid Carcinomas)

>  <discrete-label>
NOT MET

$$$$
>  <molecule>
CC1(C)CCC(CN2CCN(c3ccc(C(=O)NS(=O)(=O)c4ccc(NCC5CCOCC5)c([N+](=O)[O-])c4)c(Oc4cnc5[nH]ccc5c4)c3)CC2)=C(c2ccc(Cl)cc2)C1 [Venetoclax] + C[C@@H]1COCCN1C2=NC(=NC(=C2)C3(CC3)[S@](=N)(=O)C)C4=C5C=CNC5=NC=C4 [AZD6738] (first compound max 1 µM, 7x7, partner max 10 µM)

>  <target>
SW872 (Other Solid Carcinomas)

>  <discrete-label>
MET

$$$$
>  <molecule>
Cc1cc2ncnn2cc1Nc1ncc2c(n1)n(C1CCOCC1)c(=O)n2C [AZD7648] + CCN(CCO)CCCOc1ccc2c(Nc3cc(CC(=O)Nc4cccc(F)c4)[nH]n3)ncnc2c1 [AZD2811] (first compound max 10 µM, 7x7, partner max 1 µM)

>  <target>
SW872 (Other Solid Carcinomas)

>  <discrete-label>
NOT MET

$$$$
>  <molecule>
COc1nnc2ccc(N3CCC(c4ccc(OCCN5CCN(C)C(=O)[C@H]5C)cc4)CC3)nn12 [AZD5153] + C=CCn1c(=O)c2cnc(Nc3ccc(N4CCN(C)CC4)cc3)nc2n1-c1cccc(C(C)(C)O)n1 [AZD1775] (first compound max 1 µM, partner max 1 µM)

>  <target>
SW872 (Other Solid Carcinomas)

>  <discrete-label>
MET

$$$$
>  <molecule>
COc1cccc2c1C(=O)c1c(O)c3c(c(O)c1C2=O)C[C@@](O)(C(=O)CO)C[C@@H]3O[C@H]1C[C@H](N)[C@H](O)[C@H](C)O1 [Doxorubicin] + Cc1cc2ncnn2cc1Nc1ncc2c(n1)n(C1CCOCC1)c(=O)n2C [AZD7648] (first compound max 1 µM, 7x7, partner max 10 µM)

>  <target>
SW872 (Other Solid Carcinomas)

>  <discrete-label>
MET

$$$$
>  <molecule>
COc1cccc(OCCCN)c1-c1cc(Nc2cnc(C#N)cn2)n[nH]1 [Prexasertib] + Cc1cc2ncnn2cc1Nc1ncc2c(n1)n(C1CCOCC1)c(=O)n2C [AZD7648] (first compound max 1 µM, 7x7, partner max 10 µM)

>  <target>
SW872 (Other Solid Carcinomas)

>  <discrete-label>
MET

$$$$

Q: I'd appreciate it if you could say whether CC(=O)c1c(C)c2cnc(Nc3ccc(N4CCNCC4)cn3)nc2n(C2CCCC2)c1=O [Palbociclib] + Cc1c2c(nn1C)CSCc1cc(n(C)n1)CSc1cc(c3ccccc3c1)OCCCc1c(C(=O)O)n(C)c3c-2c(Cl)ccc13 [AZD5991] (first compound max 10 µM, 7x7, partner max 1 µM) has combination Emax at least equal to 0.3.
Ans: NOT MET

Q: Does the reported combination Emax for CN(CCO)CC[C@H](CSc1ccccc1)Nc1ccc(S(=O)(=O)NC(=O)c2ccc(N3CCC([C@@H](O)c4ccccc4-c4ccc(Cl)cc4)CC3)cc2)cc1S(=O)(=O)C(F)(F)F [AZD4320] + C[C@@H]1COCCN1C2=NC(=NC(=C2)C3(CC3)[S@](=N)(=O)C)C4=C5C=CNC5=NC=C4 [AZD6738] (first compound max 1 µM, 7x7, partner max 10 µM) fall at or above the 0.3 mark?
Ans: MET

Q: Quick check: does C=CCn1c(=O)c2cnc(Nc3ccc(N4CCN(C)CC4)cc3)nc2n1-c1cccc(C(C)(C)O)n1 [AZD1775] + O=C(c1cc(Cc2n[nH]c(=O)c3ccccc23)ccc1F)N1CCN(C(=O)C2CC2)CC1 [Olaparib] (first compound max 1 µM, partner max 10 µM) have combination Emax greater than or equal to 0.3?
Ans: MET

Q: Assess whether reported combination Emax for CN(CCO)CC[C@H](CSc1ccccc1)Nc1ccc(S(=O)(=O)NC(=O)c2ccc(N3CCC([C@@H](O)c4ccccc4-c4ccc(Cl)cc4)CC3)cc2)cc1S(=O)(=O)C(F)(F)F [AZD4320] + CS(=O)(=O)CCNCc1ccc(-c2ccc3ncnc(Nc4ccc(OCc5cccc(F)c5)c(Cl)c4)c3c2)o1 [Lapatinib] (first compound max 1 µM, 7x7, partner max 10 µM) sits at 0.3 or higher.
Ans: NOT MET

Q: Please tell me: is the molecule C=CCn1c(=O)c2cnc(Nc3ccc(N4CCN(C)CC4)cc3)nc2n1-c1cccc(C(C)(C)O)n1 [AZD1775] + C[C@@H]1COCCN1C2=NC(=NC(=C2)C3(CC3)[S@](=N)(=O)C)C4=C5C=CNC5=NC=C4 [AZD6738] (first compound max 1 µM, partner max 10 µM) at or over 0.3 in terms of combination Emax?
Ans: MET
